All values here come from PubChem BioAssay (EPA / NIEHS).

# tgt: Paired box protein Pax-6 (Homo sapiens) (UniProt P26367)
# Sequence (P26367 whole entry, looked up): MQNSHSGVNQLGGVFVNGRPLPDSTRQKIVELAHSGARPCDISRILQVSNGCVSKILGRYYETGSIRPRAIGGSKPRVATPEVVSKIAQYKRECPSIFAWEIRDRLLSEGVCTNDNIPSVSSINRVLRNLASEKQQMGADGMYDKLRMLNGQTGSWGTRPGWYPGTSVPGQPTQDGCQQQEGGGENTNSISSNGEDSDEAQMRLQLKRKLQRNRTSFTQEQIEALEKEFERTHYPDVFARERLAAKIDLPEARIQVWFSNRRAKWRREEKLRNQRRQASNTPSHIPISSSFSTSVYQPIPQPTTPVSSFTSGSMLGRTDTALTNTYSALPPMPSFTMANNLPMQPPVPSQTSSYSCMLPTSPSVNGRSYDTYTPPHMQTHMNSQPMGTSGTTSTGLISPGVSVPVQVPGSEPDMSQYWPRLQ
# protocol-details: ATG_Pax6_CIS: Attagene CIS-FACTORIAL HepG2 Assay for human Paired Box 6 (PAX6) (AID 2282956)
# test-settings: HepG2 CIS-FACTORIAL PAX6 reporter transcription, RNA readout; actives raise or lower the signal
Active and inactive are the calls of the source. How the source made its calls: active means hit-call score of the fitted dose curve at least 0.9, where 1 is the maximum; inactive means score below 0.9.
Outcome field: choose from active, inactive

Completed entries (count: 10):
molecule	classification
CC1CCC2CC1C2(C)C (centres undefined)	inactive
NC(=O)NC1NC(=O)NC1=O (centres undefined)	inactive
CCN(CC)CCOC(=O)c1ccc(N)cc1	inactive
c1ccc2[nH]ccc2c1	inactive
CC(=O)Nc1ccccc1O	inactive
CCCCCCCCCCCCN	inactive
c1ccc2c(c1)c1cccc3ccc4cccc2c4c31	inactive
Cc1ccc2n[nH]nc2c1	inactive
CCOc1ccccc1OCC	inactive
O=C[C@@H](O)[C@H](O)[C@H](O)CO	inactive

QUERY: Returns: the outcome recorded for CCCCc1ccc(N)cc1 in this assay.
RESULT: inactive

QUERY: Returns: the outcome recorded for C=C(C)[C@@H]1CC[C@@H](C)C[C@@H]1O in this assay.
RESULT: inactive

----------
# tgt: Bile acid receptor (Homo sapiens)
# protocol-details: OT_FXR_FXRSRC1_1440: Odyssey Thera (OT) 24-hour HEK293T Protein-Complementation Assay for Farnesoid X receptor/SRC-1 Co-activator (AID 2283384)
Inconclusive results are not listed. Active and inactive are the calls of the source. How the source made its calls: active means hit-call score of the fitted dose curve at least 0.9, where 1 is the maximum; inconclusive means response in the unintended direction; inactive means score below 0.9.
Outcome field: choose from True = active, False = inactive

QUERY: Returns: the outcome recorded for CC(=O)OCCC(C)CC(C)(C)C (configuration not stated) in this assay.
RESULT: False

QUERY: Returns: the outcome recorded for c1ccc(CCCc2ccccn2)cc1 in this assay.
RESULT: False

QUERY: Returns: the outcome recorded for CC(C)(N)CO in this assay.
RESULT: False

QUERY: Returns: the outcome recorded for O=C1NC(=O)c2ccccc21 in this assay.
RESULT: False

QUERY: Returns: the outcome recorded for OCCN1CCNCC1 in this assay.
RESULT: False

QUERY: Returns: the outcome recorded for COc1cc(C(C)(C)C)c(O)c(C(C)(C)C)c1 in this assay.
RESULT: False

QUERY: Returns: the outcome recorded for CCN(CC)c1ccc2c(-c3ccccc3C(=O)O)c3ccc(=[N+](CC)CC)cc-3oc2c1 in this assay.
RESULT: True

----------
# protocol-details: BSK_3C_TissueFactor: BioMAP Diversity Plus: 3C Assay for Tissue Factor Biomarker Activity (AID 2282997)
# test-settings: BioMAP 3C HUVEC, tissue factor biomarker readout; actives raise or lower the signal
The source made the active and inactive calls. The calls were made as follows: active = hit-call score of the fitted dose curve at least 0.9, where 1 is the maximum; inactive = score below 0.9.
Outcome field: choose from t = active, f = inactive

Completed entries (count: 2):
compound	classification
Cc1ccc(O)c(C(C)(C)C)c1	t
CC1CCC(C(C)CS)CC1S (stereo not given)	t

QUERY: Returns: the outcome recorded for O=P(c1ccccc1)(c1ccccc1)c1ccccc1 in this assay.
RESULT: f

QUERY: Returns: the outcome recorded for Cc1ccc2n[nH]nc2c1 in this assay.
RESULT: f

----------
# protocol-details: ATG_NF_kB_CIS: Attagene CIS-FACTORIAL HepG2 Assay for human Nuclear Factor Kappa B (NF-kB) (AID 2282991)
# test-settings: HepG2 Attagene cis-factorial NF-kB reporter mRNA; actives raise or lower the signal
Calls of active or inactive are those of the source. Rule for the calls: active = hit-call score of the fitted dose curve at least 0.9, where 1 is the maximum; inactive = score below 0.9.
Outcome field: choose from label 1 for active, label 0 for inactive

Completed entries (count: 3):
compound	classification
N#Cc1ccc(CC(=NNC(=O)Nc2ccc(OC(F)(F)F)cc2)c2cccc(C(F)(F)F)c2)cc1	label 0
C=CC(=O)OCCOCCOCC	label 1
Nc1cc(N)cc(C(=O)O)c1	label 0

QUERY: Returns: the outcome recorded for CC(C)=CCC/C(C)=C/COC=O in this assay.
RESULT: label 0

QUERY: Returns: the outcome recorded for ClCCCl in this assay.
RESULT: label 0

QUERY: Returns: the outcome recorded for Clc1ccc(Cl)c(Cl)c1Cl in this assay.
RESULT: label 0

QUERY: Returns: the outcome recorded for COc1ccc(O)cc1 in this assay.
RESULT: label 0

QUERY: Returns: the outcome recorded for O=C(O)CCCCCCCCCCC(=O)O in this assay.
RESULT: label 0

QUERY: Returns: the outcome recorded for Cc1ccc(S)cc1 in this assay.
RESULT: label 0

QUERY: Returns: the outcome recorded for CC(=O)OCCOC(C)=O in this assay.
RESULT: label 0

QUERY: Returns: the outcome recorded for OC1OC[C@@H](O)[C@H](O)[C@H]1O (stereo partly specified) in this assay.
RESULT: label 0

QUERY: Returns: the outcome recorded for Cc1ccc2n[nH]nc2c1 in this assay.
RESULT: label 0

QUERY: Returns: the outcome recorded for O=C(O)c1ccc(C(=O)O)cc1 in this assay.
RESULT: label 0

QUERY: Returns: the outcome recorded for CN(C)CCCN in this assay.
RESULT: label 0

QUERY: Returns: the outcome recorded for COC(=O)Cc1cccc2ccccc12 in this assay.
RESULT: label 0

QUERY: Returns: the outcome recorded for O=C(O)Cc1cccc2ccccc12 in this assay.
RESULT: label 0
